target: T1, human IL-13 R130Q variant (R110Q of the mature chain) (human, UniProt P35225 35-146, Biotinylated on amines (NHS-LC-biotin, 4:1) in ELISA, panning and competition assays. The letters are unchanged.); assay: single-point (10 nM) phage Fab ELISA on biotinylated IL-13 R130Q
T1 construct: R130Q counts from Met 1 of the signal peptide, R110Q on the mature chain; Bought from Peprotech; also called IL-13 R110Q; b-R130Q
T1 sequence (P35225 35-146 limits assumed, stated change not applied): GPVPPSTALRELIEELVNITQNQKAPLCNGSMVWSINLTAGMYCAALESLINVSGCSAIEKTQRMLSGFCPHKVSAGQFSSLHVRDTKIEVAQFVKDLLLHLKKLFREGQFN
experimental.readout: Signal (% of Lc16Hc7)

1. Fab clone 3C01 (IL-13-62 library) (Fab, V domains shown, Fab on phage pIX) VH: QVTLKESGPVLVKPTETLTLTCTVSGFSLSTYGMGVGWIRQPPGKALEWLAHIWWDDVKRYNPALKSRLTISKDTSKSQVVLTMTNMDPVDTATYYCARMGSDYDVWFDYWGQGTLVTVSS VL: EIVLTQSPATLSLSPGERATLSCRASKSISKYLAWYQQKPGQAPRLLIYSGSTLQSGIPARFSGSGSGTDFTLTISSLEPEDFAVYYCQQHNFGPYTFGQGTKLEIK | 124%
2. Fab clone 1A05 (IL-13-62 library) (Fab, V domains shown, Fab on phage pIX) VH: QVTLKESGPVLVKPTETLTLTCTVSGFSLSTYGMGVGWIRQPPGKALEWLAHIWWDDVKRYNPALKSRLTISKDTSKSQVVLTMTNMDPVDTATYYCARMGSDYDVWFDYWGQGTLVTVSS VL: EIVLTQSPATLSLSPGERATLSCRASKSISKYLAWYQQKPGQAPRLLIYSGSTLQSGIPARFSGSGSGTDFTLTISSLEPEDFAVYYCQQHDYAPYTFGQGTKLEIK | 136%
3. Fab clone 1A06 (IL-13-62 library) (Fab, V domains shown, Fab on phage pIX) VH: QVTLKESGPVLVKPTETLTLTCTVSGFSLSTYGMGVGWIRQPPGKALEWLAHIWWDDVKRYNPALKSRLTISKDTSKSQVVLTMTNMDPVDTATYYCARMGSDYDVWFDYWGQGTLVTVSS VL: EIVLTQSPATLSLSPGERATLSCRASKSISKYLAWYQQKPGQAPRLLIYSGSTLQSGIPARFSGSGSGTDFTLTISSLEPEDFAVYYCQQHEWGPYTFGQGTKLEIK | 122%
